Molecular target: T1, PUF4 RNA-binding domain (Saccharomyces cerevisiae, UniProt P25339 537-888)
T1 sequence: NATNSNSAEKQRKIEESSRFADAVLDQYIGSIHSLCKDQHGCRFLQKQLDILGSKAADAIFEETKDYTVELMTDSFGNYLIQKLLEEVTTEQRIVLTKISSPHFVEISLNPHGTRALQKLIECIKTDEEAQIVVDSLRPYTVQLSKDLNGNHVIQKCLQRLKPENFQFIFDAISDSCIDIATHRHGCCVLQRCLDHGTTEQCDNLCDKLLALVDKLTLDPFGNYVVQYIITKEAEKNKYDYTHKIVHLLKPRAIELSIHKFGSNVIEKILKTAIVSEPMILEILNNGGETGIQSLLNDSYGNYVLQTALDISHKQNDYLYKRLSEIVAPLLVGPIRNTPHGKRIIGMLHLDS
Assay: Mg; RNA-MaP; 20 mM Na-HEPES pH 7.4, 30 mM KOAc, 0.75 mM MgCl2, 0.1% Tween-20, 5% glycerol, 0.1 mg/mL BSA, 2 mM DTT; 25 C; 0.0125-409.6 nM protein
Settings: tags: N-His6-TEV cleaved; C-SNAP kept, Cy3B-labelled; label: tethered on chip by stalled RNA polymerase
Measured pKd of individual entries
When answering, recall that pKd equals minus log10 of the concentration in mol/L, and write that number alone.

Example entries begin here.
Ie_S2_P4E.1_K4.1_C4.1_H4.1_[+4TCTCT]_A4.1_F4.1_T4.1 (ssRNA) RNA: UUUGAUUAAUAUGAUAUCGUUCUUUCUUGUAUCUCUUAUUAUUCUUUCUCGAUAUCAUAUUAAUCUUU; 8.15
UCUCUUUGUACUGUCAUCUCUU (ssRNA) [Ic_S1_P5E.1_K5.1_C5.1_H5.1_A5.1_[T5C]_[A7G]_F5.1_[T9C]_T5.1]; 6.93
Ib_S4_P5E.1_K5.1_C5.1_H5.1_[T1C]_A5.1_[A7T]_F5.1_T5.1 (ssRNA) RNA: UUUGACAACUGAUCGUUCUUUCUCGUAUUUUUAUUCUUUCUCGAUCAGUUGUCUUU; 6.43
Ie_S2_P3E.2_K3.1_C3.2_H3.1_[+1TC]_A3.1_F3.1_T3.2 (ssRNA) RNA: UUUGAUUAAUAUGAUAUCGUUCUUUCUCUUUCGUAUAUAUAUUCUUUCUCGAUAUCAUAUUAAUCUUU; 7.41
UCUCUUUGUAUUAUCCCUAUCUCUU (ssRNA) [Ie_S1_P5E.1_K5.1_C5.1_H5.1_A5.1_F5.1_[+8CCC]_T5.1]; 7.47

INPUT: Please give the measured pKd for this binder: UCUCUUUGUAUGCUGUCUCUU (ssRNA) [Ic_S1_P4E.1_K4.1_C4.1_H4.1_A4.1_[A6G]_[T7C]_F4.1_[A9G]_T4.1]
OUTPUT: 6.16

INPUT: Please give the measured pKd for this binder: Ib_S4_P5E.1_K5.1_C5.1_H5.1_[A4C]_A5.1_F5.1_[A10T]_T5.1 (ssRNA) RNA: UUUGACAACUGAUCGUUCUUUCUUGUCUUAUUUUUCUUUCUCGAUCAGUUGUCUUU
OUTPUT: 6.70

INPUT: Please give the measured pKd for this binder: Id_ii_S2_P5E.2_K5.1_C5.2_[T-1C]_H5.1_A5.1_F5.1_T5.2_[A12T] (ssRNA) RNA: UUUGAUUAAUAUGAUAUCGUUCUUUCUCCUGUAUUAUUAUUUUCUUUCUCGAUAUCAUAUUAAUCUUU
OUTPUT: 9.00

INPUT: Please give the measured pKd for this binder: UCUCUUUGUAAUGGUCUCUCUU (ssRNA) [Ic_S1_P5E.1_K5.1_C5.1_H5.1_A5.1_[T5A]_[A7G]_F5.1_[T8G]_[A10C]_T5.1]
OUTPUT: 5.74

INPUT: Please give the measured pKd for this binder: UCUCUUCUUGUAUAUACCUUAUCUCUU (ssRNA) [Ie_S1_P3E.2_K3.1_C3.2_H3.1_A3.1_F3.1_[+8CCT]_T3.2]
OUTPUT: 8.05

INPUT: Please give the measured pKd for this binder: UCUCUUCGUACUAUUAUCUCUU (ssRNA) [Ib_S1_P5E.1_K5.1_C5.1_H5.1_[T1C]_A5.1_[T5C]_F5.1_T5.1]
OUTPUT: 6.23
